Overview of recorded growth for various compounds
tested on: SW-620 colon; test: NCI-60 one-dose screen, 48 h (100 = growth as untreated, 0 = no growth, -100 = all killed); settings: 10 µM unless noted
About 83,000 compounds went through this panel and 20% of them were active in at least one assay; those are over-represented in the sample as a whole.
OBSERVED PROPERTY: growth (%)

INSERT INTO assay_data (compound, target_desc, reported_result) VALUES
  ('COc1ccccc1/C=N\Nc1ccc([N+](=O)[O-])cn1', 'SW-620 colon', 124),
  ('CC(=O)CC(c1ccc([N+](=O)[O-])cc1)c1c(O)c2ccccc2oc1=O (stereo not given)', 'SW-620 colon', 101),
  ('CCN(C(=O)CCl)C(C)(C)C(SSSC(c1ccc(Cl)cc1)C(C)(C)N(CC)C(=O)CCl)c1ccc(Cl)cc1 (stereo not given)', 'SW-620 colon', 72.6),
  ('CS(=O)(=O)c1ccc(C(=O)N/N=C/c2ccc3c(c2)OCO3)cc1', 'SW-620 colon', 105),
  ('CN1C(=O)C(C(=O)/C=C/c2ccccc2C(=O)O)C(=O)N(C)C1=O', 'SW-620 colon', 109);

* * *

System: BT-549 breast
Experiment: NCI-60 one-dose screen, 48 h (100 = growth as untreated, 0 = no growth, -100 = all killed)
Conditions: 10 µM unless noted
Protocol: Growth inhibition of the BT-549 human tumor cell line is measured as a screen for anti-cancer activity. Cells are grown in 96 well plates and exposed to the test compound for 48 hours. Compounds are tested at a single concentration, which is 10^-5 M for most compounds. The reported endpoint is percent growth (GI% or GIPRCNT), where numbers from 0 - 100% represent growth inhibition, and numbers from -100% - 0 represent cell death. For example, a value of 40 represents 60% growth inhibition. […]
About 83,000 compounds went through this panel and 20% of them were active in at least one assay; those are over-represented in the sample as a whole.
Mark t only for growth values smaller than 70%; exact matches and larger values are f.

INSERT INTO assay_data (compound, qualitative_label) VALUES
  ('Fc1ccc(-c2nc(-c3ccc(-c4nc5ccc(F)cc5[nH]4)cc3)no2)cc1', 't'),
  ('COc1ccc(-c2nc3ccccc3n3cccc23)cc1', 'f'),
  ('CC(C)=CC[C@@H]1CC2(CC=C(C)C)C(=O)C(OC3(C(=O)c4ccccc4)C(=O)C4(CC=C(C)C)C[C@@H](CC=C(C)C)C(C)(C)C(CC=C(C)C)(C4=O)C3=O)(C(=O)c3ccccc3)C(=O)C(CC=C(C)C)(C2=O)C1(C)C (stereo not given in full)', 't'),
  ('CCOC(=O)Nc1ccc2nc(N3CCCCCC3)sc2c1', 't'),
  ('NC(CCC(=O)NC(CS)C(=O)NCC(=O)O)C(=O)O (stereo not given)', 'f'),
  ('CC(C)c1nc2ccccc2n1CC(=O)N/N=C/c1cccc(O)c1', 'f'),
  ('O=C1/C(=C/c2cc(F)cc(F)c2)Cc2cc(F)cc(F)c21', 'f'),
  ('Brc1ccsc1Br', 'f'),
  ('Cc1ccc(NC(=O)c2cc(NCc3cc(O)ccc3O)ccc2O)cc1', 't');

* * *

system: SNB-19 CNS; assay: NCI-60 one-dose screen, 48 h (100 = growth as untreated, 0 = no growth, -100 = all killed); conditions: 10 µM unless noted
Compounds without any hit were thinned out: in the full panel of roughly 83,000, 20% have a hit. The source made the active and inactive calls. How the source made its calls: active means growth percent below 10; inactive means the rest.
Overview of recorded growth for various compounds
OBSERVED PROPERTY: growth

INSERT INTO measurements (compound, reported_result) VALUES
  ('COc1cc(C2CC(=O)Nc3c2cnn3C)cc(OC)c1OC (stereo not given)', '108% (inactive)'),
  ('CC(CN1CCN(CC(C)Nc2ccnc3cc(Cl)ccc23)CC1)Nc1ccnc2cc(Cl)ccc12 (stereo not given)', '31.6% (inactive)'),
  ('O=C1/C=C/[C@@H](O)[C@@H]2C[C@@H](O)C[C@H]2/C=C/CCC[C@H]([C@@H](O)CO)O1', '66.5% (inactive)'),
  ('Nc1nc(NC2CC2)cc(-c2cccc(Cl)c2Cl)n1', '59.1% (inactive)'),
  ('CCOC(=O)c1cc(C(=O)OCC)c(C)nc1C', '103% (inactive)'),
  ('CS(=O)(=O)c1ccc(C(=O)N/N=C/c2ccccc2O)cc1', '45.4% (inactive)'),
  ('COc1ccc2nc(-c3ccc(-c4noc(-c5ccc(Cl)cc5)n4)cc3)[nH]c2c1', '95.6% (inactive)'),
  ('C[C@H](NC(=O)c1snnc1C1CC1)c1c(F)cccc1Cl', '142% (inactive)'),
  ('CCCCCCCCOC(=O)C(C)OC(=O)OCCOCCOC(=O)OC(C)C(=O)OCCCCCCCC (stereo not given)', '104% (inactive)'),
  ('COc1cc(-c2nn(C(=O)NCCN3CCN(C)CC3)cc2-c2ccncc2)ccc1Cl', '77.5% (inactive)');
